target.desc: full length human TPH1 (Homo sapiens)
Construct: To generate the enzyme, full length human TPH1 is cloned into the plasmid pET20b(+); made in house; host or cells: E. coli
Sequence (P17752 1-444): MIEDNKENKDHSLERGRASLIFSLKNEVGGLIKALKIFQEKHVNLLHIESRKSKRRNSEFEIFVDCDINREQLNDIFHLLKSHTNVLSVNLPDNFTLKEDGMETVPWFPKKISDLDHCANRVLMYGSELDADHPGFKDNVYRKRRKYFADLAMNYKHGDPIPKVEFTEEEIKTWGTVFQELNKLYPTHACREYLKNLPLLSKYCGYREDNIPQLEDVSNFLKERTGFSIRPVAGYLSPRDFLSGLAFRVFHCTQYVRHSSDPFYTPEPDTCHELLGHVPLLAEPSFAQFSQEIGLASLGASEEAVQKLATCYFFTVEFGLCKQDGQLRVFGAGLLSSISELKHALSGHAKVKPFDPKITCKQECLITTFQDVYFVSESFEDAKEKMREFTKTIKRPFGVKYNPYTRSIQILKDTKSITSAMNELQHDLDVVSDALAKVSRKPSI
test.description: Biochemical in vitro assay using fluorescence readout (TPH1 enzyme activity)
conditions: Table 1, mean where determined several times
Description: Inhibitory activities on tryptophan hydroxylase 1 have been measured for each example compound using the following procedure: Biochemical In Vitro Assay Using Fluorescence Readout To generate the enzyme, full length human TPH1 is cloned into the plasmid pET20b(+) (Novagen) and expressed in E. coli. […] The activity of TPH1 is determined by using a fluorescence assay. […] The amount of 5-hydroxy-L-tryptophan produced during the enzymatic reaction is determined by fluorescence readout. […]
endpoint.label: pIC50
Worth noting: pIC50 values are minus log10 of concentrations stated in mol/L.

The following compounds have reported results that may help.
**Query** Request the reported pIC50 associated with CCc1nc(C(=O)NC2CC2)ccc1OCC(=O)N1CCc2nc3n(c2C1c1ccc(C)c(F)c1F)CCCC3 (centres unmarked)
**Result** 8.05

**Query** Request the reported pIC50 associated with Cc1nc(C)c(C2c3c(nc4n3CCCC4)CCN2C(=O)COc2ccc(C(F)(F)F)cc2Cl)s1 (centres unmarked)
**Result** 6.88

**Query** Request the reported pIC50 associated with O=C(COc1ccc(N2CCCS2(=O)=O)nc1Cl)N1CCc2nc3n(c2[C@@H]1c1ccc(Cl)cc1F)CCS3
**Result** 8.22

**Query** Request the reported pIC50 associated with CN(C)S(=O)(=O)c1ccc(OCC(=O)N2CCc3nc4n(c3C2c2ccc(Cl)cc2F)CCCC4)c(Cl)n1 (centres unmarked)
**Result** 6.89

Further cases:
**Query** Request the reported pIC50 associated with CCc1nc(NS(=O)(=O)N(C)C)ccc1OCC(=O)N1CCc2nc3n(c2C1c1ccc(Cl)cc1F)CCS3 (centres unmarked)
**Result** 7.12

**Query** Request the reported pIC50 associated with CC(=O)N1CCn2c(nc3c2C(c2ncc(C4CC4)cc2F)N(C(=O)COc2ccc(N4CCOCC4)nc2Cl)CC3)C1 (centres unmarked)
**Result** 8.05

**Query** Request the reported pIC50 associated with COC(C)(C)c1ccc(C2c3c(nc4n3CCCC4)CCN2C(=O)COc2ccc(NS(C)(=O)=O)nc2Cl)c(F)c1 (centres unmarked)
**Result** 6.52

**Query** Request the reported pIC50 associated with CC(=O)N1CCn2c(nc3c2C(c2ccc(Cl)cc2F)N(C(=O)COc2ccc(C(=O)N(C)C)nc2Cl)CC3)C1 (centres unmarked)
**Result** 7.96

**Query** Request the reported pIC50 associated with Cc1ccc(C2c3c(nc4n3CCCC4)CCN2C(=O)COc2ccc(N3CCCS3(=O)=O)nc2Cl)c(F)c1F (centres unmarked)
**Result** 8.05

**Query** Request the reported pIC50 associated with CCc1nc(NS(C)(=O)=O)ccc1OCC(=O)N1CCc2nc3n(c2C1c1cnc(C)s1)CCCC3 (centres unmarked)
**Result** 7.44

**Query** Request the reported pIC50 associated with Cc1nc(C)c(C2c3c(nc4n3CCCC4)CCN2C(=O)COc2ccc(C(F)(F)F)nc2Cl)s1 (centres unmarked)
**Result** 6.75

**Query** Request the reported pIC50 associated with CCc1nc(C2CC2)ccc1OCC(=O)N1CCc2nc3n(c2C1c1ccc(Cl)cc1F)CCS3 (centres unmarked)
**Result** 7.80

**Query** Request the reported pIC50 associated with CS(=O)(=O)Nc1ccc(OCC(=O)N2CCc3nc4n(c3C2c2ncc(C3CC3)cc2F)CCCC4)c(Cl)n1 (centres unmarked)
**Result** 7.20

**Query** Request the reported pIC50 associated with CCc1nc(C(=O)NC2CC2)ccc1OCC(=O)N1CCc2nc3n(c2C1c1ncc(C2CC2)cc1F)CCS3 (centres unmarked)
**Result** 8.10
